# tested.on: Integrin alpha-4 (Homo sapiens)
# Sequence (P13612 whole entry): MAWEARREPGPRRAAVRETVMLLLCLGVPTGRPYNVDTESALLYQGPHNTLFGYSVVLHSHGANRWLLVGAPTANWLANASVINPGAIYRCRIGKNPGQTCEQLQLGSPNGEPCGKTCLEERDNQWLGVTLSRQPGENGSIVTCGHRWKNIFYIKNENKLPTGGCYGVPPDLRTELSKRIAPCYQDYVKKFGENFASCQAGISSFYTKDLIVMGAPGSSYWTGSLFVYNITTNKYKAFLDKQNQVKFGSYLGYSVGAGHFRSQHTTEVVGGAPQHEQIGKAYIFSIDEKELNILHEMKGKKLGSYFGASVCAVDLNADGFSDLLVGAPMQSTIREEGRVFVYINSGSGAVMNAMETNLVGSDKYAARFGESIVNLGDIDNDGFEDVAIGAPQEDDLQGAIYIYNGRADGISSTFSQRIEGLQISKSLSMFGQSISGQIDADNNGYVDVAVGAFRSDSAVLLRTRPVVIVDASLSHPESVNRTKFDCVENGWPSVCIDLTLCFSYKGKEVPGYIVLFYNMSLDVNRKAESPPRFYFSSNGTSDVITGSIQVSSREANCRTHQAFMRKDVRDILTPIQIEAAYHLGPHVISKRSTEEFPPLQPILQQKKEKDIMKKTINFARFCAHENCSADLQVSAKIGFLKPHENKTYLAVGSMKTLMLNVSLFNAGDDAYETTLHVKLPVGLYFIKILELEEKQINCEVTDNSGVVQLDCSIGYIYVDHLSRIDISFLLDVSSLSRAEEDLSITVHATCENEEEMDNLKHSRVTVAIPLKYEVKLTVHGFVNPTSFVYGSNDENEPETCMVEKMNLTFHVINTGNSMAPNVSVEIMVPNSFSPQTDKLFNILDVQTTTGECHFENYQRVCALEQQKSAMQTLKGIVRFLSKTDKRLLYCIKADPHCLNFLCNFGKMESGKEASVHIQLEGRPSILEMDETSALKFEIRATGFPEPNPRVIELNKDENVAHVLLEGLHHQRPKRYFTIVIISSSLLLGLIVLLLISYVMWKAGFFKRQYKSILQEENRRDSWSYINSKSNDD
# protocol: VLA-4 allosteric modulator potency, dose response, cell-based, U937, HUTS-21 LIBS antibody, flow cytometry (AID 449766)
quantity.kind: EC50

// worked examples, EC50 included
>  <molecule>
C=C1C(O)[C@@H]2O[C@]3(CC[C@H](/C=C/C(C)[C@@H]4CC(C)=CC5(O[C@H](C[C@@](C)(O)CO)CCC5O)O4)O3)CC[C@H]2O[C@@H]1C(O)CC(C)[C@H]1OC2(CCCCO2)CCC1C (stereo partly drawn) [MLS002320507]

>  <quantity.kind>
EC50

>  <reported.measurement>
0.61 µM

$$$$
>  <molecule>
COC(=O)C[C@]1(C(=O)OC)CN(C#N)N(c2ccc(Cl)cc2)C12c1ccccc1-c1ccccc12

>  <quantity.kind>
EC50

>  <reported.measurement>
> 30 µM

$$$$
>  <molecule>
CCOC(=O)COc1ccccc1/C=C\[N+](=O)[O-] [SMR000204386]

>  <quantity.kind>
EC50

>  <reported.measurement>
2.45 µM

$$$$
>  <molecule>
COc1cccc(-c2sc3ccccc3c2-c2ccc(OCCN(C)C)cc2)c1

>  <quantity.kind>
EC50

>  <reported.measurement>
12.4 µM

$$$$
>  <molecule>
COC(=O)[C@@H]1[C@@H](C(=O)OC)C2(c3ccccc3-c3ccccc32)N(c2ccc(Cl)cc2)N1C#N

>  <quantity.kind>
EC50

>  <reported.measurement>
> 30 µM

$$$$

Form: molecule = CN(C)CCOc1ccc(-c2c(-c3ccccc3)sc3ccccc23)cc1 [SMR001397792] ; EC50 = > 30 µM

Form: molecule = CC(NC(=O)/C(C#N)=C/c1ccc(Cl)c([N+](=O)[O-])c1)c1ccccc1 (stereo not drawn) ; EC50 = 0.95 µM

Form: molecule = `CCOC(=O)C(=Cc1ccc(OC(F)F)cc1)C1=Nn2c(nnc2-c2ccc(Cl)cc2)SC1` ; EC50 = 7.79 µM

Form: molecule = `Cc1ccc(NC(=O)c2cc(N3C(=O)C=CC3=O)ccc2N2CCOCC2)cc1Cl` ; EC50 = 5.5 µM

Form: molecule = COc1ccc(-c2sc3ccccc3c2-c2ccc(OCCN(C)C)cc2)cc1 [MLS002473632] ; EC50 = > 30 µM
